Origin of measurements: paper PMC10515491

Below: a set of entries, each annotated with reported koff.
- Subject of test: D. rerio CBP NCBD domain, Trp variant (D_rerio_NCBD 2064-2122) (Danio rerio)
- Test: stopped-flow spectroscopy; Trp variant of NCBD of the same species mixed with CID or N-CID-C; kon from the slope of kobs against CID concentration; koff from displacement of the complex by an excess of wild-type NCBD (average of three experiments); Kd = koff/kon; 20 mM sodium phosphate pH 7.40, 150 mM NaCl, 4 °C; double exponential fit for human and C. milii NCOA3, the high kobs used for Kd
Respond with the bare value in s⁻¹.

Worked examples, 3 binders total:
- Binder: "GSEGQSDERALLDQLDSLLNNTDVIALEEIDRALGIPDLINQGH (domain or fragment) [D. rerio NCOA3 CID (minimal region)]"
  koff (s⁻¹): 7.29
- Binder: "D. rerio NCOA3 N-CID-C (CID with N- and C-terminal flanking regions) (domain or fragment) GSPPQSPSWPDSGMGMEGPPSANRLPINSPLDELLAPPSTSEGQSDERALLDQLDSLLNNTDVIALEEIDRALGIPDLINQGHSSDQPPPSDPFSGPCLGPDSSMGMEPPKAMYGQGYPGPP"
  koff (s⁻¹): 5.34
- Binder: "GSEGRNDEKALLEQLVTFLSHTDESELAELDRALGIDKIVQSGC (domain or fragment) [D. rerio NCOA1 CID (minimal region)]"
  koff (s⁻¹): 1.54

Data request: So what's the measured koff for this one? D. rerio NCOA2 N-CID-C (CID with N- and C-terminal flanking regions) (domain or fragment) GPGSPPNQTAPWPDSVMPIEPVPFGNQSSSMYGGSQEDVLCPPASEGPADEGALLSQLYSALKDFDGLEEIDRALGIPALVGQAQPVEQDQFPGQDPSMMMDQKPPMYGQQQYASSPANMQQAG
Data returned: 3.51

Data request: So what's the measured koff for this one? D. rerio NCOA1 N-CID-C (CID with N- and C-terminal flanking regions) (domain or fragment) GSEPMTFDNSLANQTQAPLSSPQEQCVPCPLDEMLCPPTTPEGRNDEKALLEQLVTFLSHTDESELAELDRALGIDKIVQSGCLEPVTQTPFPQSQPPTPVPLDPKLPSYPSQFPTSPSQFP
Data returned: 0.716

Data request: So what's the measured koff for this one? GPGSASEGPADEGALLSQLYSALKDFDGLEEIDRALGIPALVGQAQ (domain or fragment) [D. rerio NCOA2 CID (minimal region)]
Data returned: 5.06
